molecular target: Nicotinic acetylcholine receptor alpha6/alpha3/beta2/beta3 (Rattus norvegicus) (UniProt P04757+P12390+P12391+P43143); test: Agonist activity at alpha6/alpha3beta2beta3 nAChR in Sprague-Dawley rat striatal synaptosomes assessed as induction of dopamine release relative to 10 uM nicotine; assay type: functional, subcellular; settings: Brain
Measured %max by item

| Compound | %max (%) |
| --- | --- |
| C1=C(c2cccnc2)C[C@H]2CNC[C@@H]1C2 | 73 |
| C1=C(c2cncc(Oc3ccccc3)c2)CC2CNCC1C2 (configuration not stated) | 57 |
| CC(C)Oc1cncc(C2=CC3CNCC(C2)C3)c1 (configuration not stated) | 86 |
| C1=C(c2cccnc2)C[C@@H]2CNC[C@H]1C2 | 49 |
| CN1C[C@H]2C=C(c3cccnc3)C[C@H](C2)C1 | 27 |
| CN1C[C@@H]2C=C(c3cccnc3)C[C@@H](C2)C1 | 13 |
| CC(C)Oc1cncc(C2=CC3CC(C2)CN(C)C3)c1 (configuration not stated) | 63 |
